target: Androgen receptor (Homo sapiens); test: qHTS assay to identify small molecule agonists of the androgen receptor (AR) signaling pathway using the MDA cell line (AID 743040; further: nearly all actives have a fitted effect of over 20% in size); conditions: MDA-kb2 AR-luc cells, MMTV luciferase, 16 h; series mostly up to 70.3 µM
The source made the active and inactive calls. The call rests on the fitted dose curve; in most records, active means well fitted activation curve with a large enough effect in the repeat runs; inconclusive means weak or mixed curves; inactive means flat fitted curve, though single readings scatter.
Your response should consist of one outcome taken from 1 = active, 0 = inactive

Outcome? "NC[C@@H]1CC[C@@H](N)[C@@H](O[C@H]2[C@H](O)[C@@H](O[C@H]3O[C@H](CO)[C@@H](O)[C@H](N)[C@H]3O)[C@H](N)C[C@@H]2N)O1"
1

Query: recorded result category for "O=P(O)(O)OP(=O)(O)OP(=O)(O)O" in this test
0

Assay outcome for "CO[C@H]1C[C@@H]2CC[C@@H](C)[C@@](O)(O2)C(=O)C(=O)N2CCCC[C@H]2C(=O)O[C@H]([C@H](C)C[C@@H]2CC[C@@H](O)[C@H](OC)C2)CC(=O)[C@H](C)C=C(C)[C@@H](O)[C@@H](OC)C(=O)[C@H](C)C[C@H](C)/C=C/C=CC=C1C" : what was it?
0

* * *

test: qHTS RealTime-Glo MT Cell Viability Assay in HepG2 cells - 16 hour (AID 1224885); settings: RealTime-Glo luminescence; series mostly up to 76.8 µM; further: nearly all actives have a fitted effect of over 50% in size
Records with an inconclusive call do not appear. Calls of active or inactive are those of the source. The call rests on the fitted dose curve; in most records, active means well fitted cell-killing curve with a large enough effect in the repeat runs; inconclusive means weak or mixed curves; inactive means flat fitted curve, though single readings scatter.
Give one outcome, nothing more. List: class 1 = active, class 0 = inactive

For "c1ccc(-c2ccccc2-c2ccccc2)cc1" , which call appears in the assay record?
class 0

Recorded test call requested for "CCN(CC)c1ccc(N=Nc2ccccc2)cc1"
class 0

For this molecule, state the assay outcome: "Nc1cc([N+](=O)[O-])cc(Cl)c1O"
class 0

Write down the call the test reported for this molecule. Item: CCCCCCCCCCCCCCCCC(C(=O)O)C(O)(CC(=O)O)C(=O)O (centres undefined)
class 0

Look up the recorded call for "C1=CCCC1" in this test.
class 0

What outcome does the record of this test show for "Cc1c(Cl)c(=O)oc2cc(O)ccc12" ?
class 0

How did this test come out for C=CC(=O)OCC(Br)CBr (centres undefined) ?
class 0

Please state the recorded outcome for this molecule: "CCCCCCCCOC(=O)c1cc(O)c(O)c(O)c1"
class 1

For "C/C(=N\[Si](C)(C)C)O[Si](C)(C)C" , what call appears in the results of this test?
class 0

Called result for "Cc1ccc(Cl)c(N)c1Cl"
class 0

Could you kindly confirm the outcome this assay logged for "C=Cc1ccncc1" ?
class 0

Short answer needed: outcome of this test for "Cc1ccc2sc3cccc(C)c3c2c1" ?
class 0

Please let me know the test result on file for "Clc1cccc(Cl)n1" .
class 0

Could you check what this test reported for "Cc1cc(F)ccc1-c1cc(N2CC[C@@H](O)[C@H]2CO)ncc1N(C)C(=O)C(C)(C)c1cc(C(F)(F)F)cc(C(F)(F)F)c1" ?
class 1

* * *

assay: qHTS assay to identify small molecule antagonists of the androgen receptor (AR) signaling pathway using the MDA cell line in the presence of 0.5 nM R1881 - cell viability counter screen (AID 1259242); conditions: MDA-kb2 viability, CellTiter-Fluor protease fluorescence, 16 h; series mostly up to 92.4 µM; further: nearly all actives have a fitted effect of over 45% in size
Inconclusive results are not listed. Calls of active or inactive are those of the source. Calls come from the whole dose curve; as a rule, active = well fitted cell-killing curve with a large enough effect in the repeat runs; inconclusive = weak or mixed curves, or effect the other way; inactive = flat fitted curve, though single readings scatter.
Could you please pick one outcome from this set? active, inactive

# lookup: test call for "CC1(C)[C@H](C(=O)OCc2cccc(Oc3ccccc3)c2)[C@@H]1C=C(Cl)Cl"
inactive

Name the outcome recorded for "O=C(Cl)c1ccc(Cl)cc1Cl" in the assay.
inactive

Recorded test call requested for "COc1c(Br)cc(Br)c(C)c1Br"
inactive

Record lookup: outcome of this test for "Cc1ccc(Cl)c(N)c1Cl" ?
inactive

In this assay, the call recorded for "CN1CCN(c2ccccc2/C=C2\SCCN(c3ccc(Cl)c(Cl)c3)C2=O)CC1" was what?
active

Each compound tested received a call. Report the one for "Nc1cc([N+](=O)[O-])cc(Cl)c1O" .
inactive

Query: recorded result category for CCOC(=O)C1=NN(c2ccc(Cl)cc2Cl)C(C)(C(=O)OCC)C1 (stereo not given) in this test
inactive

Short answer needed: outcome of this test for c1ccc(-c2ccc(C(c3ccccc3)n3ccnc3)cc2)cc1 (stereo not given) ?
inactive

Lab log entry: "O=C(c1ccccc1)c1ccc(Cl)cc1" — outcome as called in the assay?
inactive

What was the test verdict on "C/C=C/C(=O)OCC(C)C" ?
inactive

* * *

target: Thyrotropin receptor (Homo sapiens); assay: qHTS assay to identify small molecule agonists of the thyroid stimulating hormone receptor (TSHR) signaling pathway (AID 1224843); details: TSHR-HEK293 cells, cAMP HTRF, agonist mode, 30 min; series mostly up to 92.4 µM; further: nearly all actives have a fitted effect of over 45% in size
Records with an inconclusive call do not appear. The source made the active and inactive calls. The call rests on the fitted dose curve.
One label from this list, please: y = active, n = inactive

Record request — test call for "Nc1ccc(F)c([N+](=O)[O-])c1"
n

Write down the call the test reported for this compound. Item: "CCNc1nc(NC(C)(C)C)nc(OC)n1"
n

I'd appreciate the recorded outcome for "Cc1ccc2n[nH]nc2c1" from this test.
n

I would be grateful if you could indicate the recorded call for "CC(C)C(=O)C(C)C" .
n

Recorded call for "CN1CCN(C)CC1" ?
n

Each compound tested received a call. Report the one for "NCc1ccco1" .
n

// outcome(item) with item = "CO[Si](OC)(c1ccccc1)c1ccccc1"
n

What was the test verdict on "CCCCCc1ccc(O)cc1" ?
n

How was "[Cl][Sc]([Cl])[Cl]" classified in this test?
n

Please state the recorded outcome for this compound: "O=C1OCc2ccccc21"
n

// param item: "COc1cc(OC)nc(NC(=O)NS(=O)(=O)Nc2ccccc2C(=O)N(C)C)n1" ; yields the recorded call
n

Check the results log: what was the call for "CCC(=O)OC/C=C(\C)CCC=C(C)C" ?
n

# lookup: test call for "CN1CCN(CCCN2c3ccccc3Sc3ccc(Cl)cc32)CC1"
n

Could you please tell me the result logged for "Nc1cccnc1N" in this assay?
n

Would you mind telling me which call this test gave CC(CC(C)(C)C)CC(C)(C)CC(C)(C)C (centres undefined) ?
n

What outcome does the record of this test show for "c1ccc2occc2c1" ?
y

Dear all, I need the recorded test outcome for "Cn1ccnc1" , thank you.
n

// return assay outcome for CCCCCCCCCCCCCCCCC(C(=O)O)C(O)(CC(=O)O)C(=O)O (centres undefined)
n

Which result was noted for this compound in the test: "COc1c(Br)cc(Br)c(C)c1Br"
n

Assay result, entry "CC(C)(C)c1cc(CCC(=O)OCCSCCOC(=O)CCc2cc(C(C)(C)C)c(O)c(C(C)(C)C)c2)cc(C(C)(C)C)c1O" — outcome?
n

Call for entry "Cc1ccc(C=O)cc1" :
n

I'd appreciate the recorded outcome for "C=COCCCC" from this test.
n

Could you kindly confirm the outcome this assay logged for "CC1(C)[C@H](C(=O)OCc2cccc(Oc3ccccc3)c2)[C@@H]1C=C(Cl)Cl" ?
n

What was the test verdict on O=C(CCN1CCC(c2ccccc2)C1)c1ccc2c(c1)OCCO2 (centres undefined) ?
n

Hi, do you know how S=C1NC=NC2N=CNC12 (centres undefined) came out in this test?
n

Write down the call the test reported for this compound. Item: "CC1(C)[C@H]2CC[C@]1(C)C(=O)C2"
n

Given "Cc1c(Cl)c(=O)oc2cc(O)ccc12" , state the outcome it received in this test.
n

Would you mind telling me which call this test gave "CC(C)(c1ccc(Oc2ccc(N)cc2)cc1)c1ccc(Oc2ccc(N)cc2)cc1" ?
y

Would you mind telling me which call this test gave O=C1OC(O)C(C(Cl)Cl)=C1Cl (centres undefined) ?
n

Check the results log: what was the call for "C/C=C/C(=O)OCC(C)C" ?
n

Could you kindly confirm the outcome this assay logged for CCc1cccc(C)c1N(C(=O)CS(=O)(=O)O)C(C)COC (centres undefined) ?
n

Assay result, entry "CC(C)(C)C1=CC(=O)C(C(C)(C)C)=CC1=O" — outcome?
y

Which outcome did this test record for the compound "N#Cc1nc(Cl)c(Cl)c(Cl)c1Cl" ?
y

Which outcome did this test record for the compound "C=Cc1ccncc1" ?
n

Outcome? C=C1C(CCl)(CCl)C2(Cl)C(Cl)C(Cl)C1(Cl)C2(Cl)Cl (centres undefined)
y

What classification did "CCCCCCCCCCCC(=O)Cl" end up with in this test?
n

Dear all, I need the recorded test outcome for "C/C(=C\c1ccc(C(=O)O)cc1)c1ccc2c(c1)C(C)(C)CCC2(C)C" , thank you.
n

Record request — test call for "CN(C/C=C/c1ccccc1)Cc1cccc2ccccc12"
n

Entry "CN1CCN(CCCN2c3ccccc3Sc3ccc(C(F)(F)F)cc32)CC1" : call = ?
n

* * *

experiment: qHTS assay to identify small molecule antagonists of the estrogen related receptor signaling pathway with the pleiotropic PPARgamma coactivator (PGC) from Tox21 10K library (AID 1224841); details: PGC/ERR reporter cell line, ONE-Glo luciferase, 18 h; series mostly up to 92.4 µM; further: actives are mostly falling curves and most rising ones were filed inactive; nearly all actives have a fitted effect of over 50% in size
Results filed as inconclusive are left out. The source made the active and inactive calls. How the calls were made is not given here.
Write down the outcome that applies. Available outcomes: 1 (yes) (active), 0 (no) (inactive)

Hello, I am checking results. What call was entered for "CN(C[C@@H](CC[N+]12CCC(C3CCCCC3)(CC1)CC2)c1ccc(Cl)c(Cl)c1)C(=O)c1cc(C(F)(F)F)cc(C(F)(F)F)c1" ?
0 (no)

Please indicate how the test categorized "C=C1CC[C@H]2O[C@]2(C)CC[C@@H]2[C@@H]1CC2(C)C" .
0 (no)

Record lookup: outcome of this test for c1ccc(-c2ccc(C(c3ccccc3)n3ccnc3)cc2)cc1 (stereo not drawn) ?
1 (yes)

Please share the test call associated with "CC(C)C(=O)C(C)C" .
0 (no)

// param item: "COc1cc(OC)nc(NC(=O)NS(=O)(=O)Nc2ccccc2C(=O)N(C)C)n1" ; yields the recorded call
0 (no)

Given "Clc1cccc(Cl)n1" , state the outcome it received in this test.
0 (no)

Write down the call the test reported for this compound. Item: "CCCC(=O)c1cc(O)c(O)cc1O"
1 (yes)

I would be grateful if you could indicate the recorded call for "CC1(C)[C@H]2CC[C@]1(C)C(=O)C2" .
0 (no)

Recorded test outcome, item "Nc1ccc(Oc2cccc(Oc3ccc(N)cc3)c2)cc1"
1 (yes)

Per the records of this test, what outcome belongs to "Nc1c(Br)cc([N+](=O)[O-])cc1Br" ?
1 (yes)

Please share the test call associated with "Cc1c[nH]c(=O)[nH]c1=O" .
0 (no)

Which outcome was entered for the compound C=C1C(CCl)(CCl)C2(Cl)C(Cl)C(Cl)C1(Cl)C2(Cl)Cl (stereo not drawn) in this test?
1 (yes)

// return assay outcome for "CC(C)(C)C1=CC(=O)C(C(C)(C)C)=CC1=O"
0 (no)

Assay outcome for "O=[N+]([O-])c1ccc(O)c2ncccc12" : what was it?
1 (yes)

Hi, sorry to bother you, what did the test record for "CCCCCCCCSCc1cc(C)c(O)c(CSCCCCCCCC)c1" ?
0 (no)

In this assay, the call recorded for "Nc1ccc2c(S(=O)(=O)O)cccc2c1S(=O)(=O)O" was what?
0 (no)

Can you look up the reported call for "Clc1ccc2c(Cl)ccnc2c1" for me?
0 (no)

Could you check what this test reported for "Oc1ccc2c(c1)CCC2" ?
0 (no)

So what was the verdict on "Brc1cc(Br)cc(Br)c1" in this test?
0 (no)

Kindly provide the recorded test outcome for the following compound: "SC1CCCCC1"
0 (no)

For "COc1cc(/C=C/C(=O)CC(=O)/C=C/c2ccc(O)c(OC)c2)ccc1O" , what call appears in the results of this test?
1 (yes)

Given "CCCCCc1ccc(O)cc1" , state the outcome it received in this test.
0 (no)

What classification did "O=C1CCCCCCCCCCCCCC1" end up with in this test?
0 (no)

For this compound, state the assay outcome: "O=C1C=CC(=O)N1c1cccc(N2C(=O)C=CC2=O)c1"
1 (yes)

How was "N#Cc1nc(Cl)c(Cl)c(Cl)c1Cl" classified in this test?
1 (yes)

Test call for this compound, please: CCCCCCCCCCCCCCCCC(C(=O)O)C(O)(CC(=O)O)C(=O)O (stereo not drawn)
0 (no)

State the result this test recorded for "CC(c1cc(C(C)(C)C)cc(C(C)(C)C)c1O)c1cc(C(C)(C)C)cc(C(C)(C)C)c1O" .
0 (no)

# outcome recorded in this test, key = "CCCCCCCCCCCCCCCCCCNC(=O)OC1CCN(C(=O)OC[C@H](COC(=O)N(Cc2cccc[n+]2CC)C(=O)c2ccccc2OC)OC)CC1"
1 (yes)

# fetch the recorded call for "C/C=C/C(=O)C1=C(C)C=CCC1(C)C" here
0 (no)

Which result was noted for this compound in the test: "Nc1ccc(F)c([N+](=O)[O-])c1"
1 (yes)

Tell me the assay call for "COc1cccc(-c2ccc(/C=C\CN3CCCCCC3)cc2Cl)c1" please.
0 (no)

In this assay, the call recorded for "O=C1c2ccccc2C(=O)c2c(Cl)cccc21" was what?
0 (no)

Look up the recorded call for "c1ccc(C[P+](c2ccccc2)(c2ccccc2)c2ccccc2)cc1" in this test.
1 (yes)
